This collection of values is drawn from patent US20190300576A1.

Would you kindly list IC50, viability of SJSA-1 cells for each of these binders?
# measured-target: MDM2 in MDM2 overexpressing SJSA-1 cells (UniProt Q00987 1-491, limits assumed)
# Sequence (Q00987 whole entry): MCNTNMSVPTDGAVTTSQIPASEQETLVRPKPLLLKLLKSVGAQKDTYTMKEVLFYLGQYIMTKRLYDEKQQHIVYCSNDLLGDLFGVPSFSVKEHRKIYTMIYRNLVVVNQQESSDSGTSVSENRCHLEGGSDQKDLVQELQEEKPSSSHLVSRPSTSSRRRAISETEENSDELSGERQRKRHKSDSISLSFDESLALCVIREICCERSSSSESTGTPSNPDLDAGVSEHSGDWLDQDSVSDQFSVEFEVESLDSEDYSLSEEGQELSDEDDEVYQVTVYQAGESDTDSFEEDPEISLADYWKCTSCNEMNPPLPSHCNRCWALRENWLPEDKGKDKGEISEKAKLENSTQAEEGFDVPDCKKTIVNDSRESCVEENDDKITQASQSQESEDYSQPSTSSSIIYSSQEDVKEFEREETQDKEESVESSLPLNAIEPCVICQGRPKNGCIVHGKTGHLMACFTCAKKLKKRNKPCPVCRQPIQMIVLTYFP
# test-summary: cell-based or functional assay
*1 amine or outer side, *2 acyl side, *3 side chain or, on linkers, in order; H or OH if unused. Bridges are numbered along the chain shown (N, C = ends). [ ]: non-standard residue; d: D form. Hexa = hexylalanine = (2S)-2-aminononanoic acid, CCCCCCC[C@H](N[*:1])C(=O)[*:2]; perfluorosulfone = not defined here; R8 = C=CCCCCCC[C@@](C)(N)C(=O)O; F2f = difluoro-L-phenylalanine; Cba = N[C@@H](CC1CCC1)C(=O)O; S5 = C=CCCC[C@](C)(N)C(=O)O; Dap = NC[C@H](N)C(=O)O

Tell me the measured IC50, viability of SJSA-1 cells of Ac-LT[F2f]KEY[Hexa]AQ[Cba]KSAA-NH2 (linker 4-11 via perfluorosulfone; reading uncertain; also: printed as LT(F2f)KEY(Hexa)AQ(Cba)(K)SAA) [peptide 10b-S4] , please.
> 20 µM

Also need Ac-LT[F2f][R8]EFWAQ[Cba][S5]SAA-NH2 (staple 4-11) [peptide 11b-M] , thanks.
3.2 µM

Also need Ac-LT[F2f][Dap]EY[Hexa]AQ[Cba][Dap]SAA-NH2 (bridge 4-11 via perfluorosulfone; reading uncertain) [peptide 10b-S1] , thanks.
> 20 µM
